study_target: G2019S LRRK2 (Homo sapiens, UniProt Q5S007, G2019S)
Construct: expressed in transfected cells; host or cells: HEK293 (ATCC CRL-1573), transient transfection, ubiquitin promoter
Sequence (Q5S007 whole entry G2019S): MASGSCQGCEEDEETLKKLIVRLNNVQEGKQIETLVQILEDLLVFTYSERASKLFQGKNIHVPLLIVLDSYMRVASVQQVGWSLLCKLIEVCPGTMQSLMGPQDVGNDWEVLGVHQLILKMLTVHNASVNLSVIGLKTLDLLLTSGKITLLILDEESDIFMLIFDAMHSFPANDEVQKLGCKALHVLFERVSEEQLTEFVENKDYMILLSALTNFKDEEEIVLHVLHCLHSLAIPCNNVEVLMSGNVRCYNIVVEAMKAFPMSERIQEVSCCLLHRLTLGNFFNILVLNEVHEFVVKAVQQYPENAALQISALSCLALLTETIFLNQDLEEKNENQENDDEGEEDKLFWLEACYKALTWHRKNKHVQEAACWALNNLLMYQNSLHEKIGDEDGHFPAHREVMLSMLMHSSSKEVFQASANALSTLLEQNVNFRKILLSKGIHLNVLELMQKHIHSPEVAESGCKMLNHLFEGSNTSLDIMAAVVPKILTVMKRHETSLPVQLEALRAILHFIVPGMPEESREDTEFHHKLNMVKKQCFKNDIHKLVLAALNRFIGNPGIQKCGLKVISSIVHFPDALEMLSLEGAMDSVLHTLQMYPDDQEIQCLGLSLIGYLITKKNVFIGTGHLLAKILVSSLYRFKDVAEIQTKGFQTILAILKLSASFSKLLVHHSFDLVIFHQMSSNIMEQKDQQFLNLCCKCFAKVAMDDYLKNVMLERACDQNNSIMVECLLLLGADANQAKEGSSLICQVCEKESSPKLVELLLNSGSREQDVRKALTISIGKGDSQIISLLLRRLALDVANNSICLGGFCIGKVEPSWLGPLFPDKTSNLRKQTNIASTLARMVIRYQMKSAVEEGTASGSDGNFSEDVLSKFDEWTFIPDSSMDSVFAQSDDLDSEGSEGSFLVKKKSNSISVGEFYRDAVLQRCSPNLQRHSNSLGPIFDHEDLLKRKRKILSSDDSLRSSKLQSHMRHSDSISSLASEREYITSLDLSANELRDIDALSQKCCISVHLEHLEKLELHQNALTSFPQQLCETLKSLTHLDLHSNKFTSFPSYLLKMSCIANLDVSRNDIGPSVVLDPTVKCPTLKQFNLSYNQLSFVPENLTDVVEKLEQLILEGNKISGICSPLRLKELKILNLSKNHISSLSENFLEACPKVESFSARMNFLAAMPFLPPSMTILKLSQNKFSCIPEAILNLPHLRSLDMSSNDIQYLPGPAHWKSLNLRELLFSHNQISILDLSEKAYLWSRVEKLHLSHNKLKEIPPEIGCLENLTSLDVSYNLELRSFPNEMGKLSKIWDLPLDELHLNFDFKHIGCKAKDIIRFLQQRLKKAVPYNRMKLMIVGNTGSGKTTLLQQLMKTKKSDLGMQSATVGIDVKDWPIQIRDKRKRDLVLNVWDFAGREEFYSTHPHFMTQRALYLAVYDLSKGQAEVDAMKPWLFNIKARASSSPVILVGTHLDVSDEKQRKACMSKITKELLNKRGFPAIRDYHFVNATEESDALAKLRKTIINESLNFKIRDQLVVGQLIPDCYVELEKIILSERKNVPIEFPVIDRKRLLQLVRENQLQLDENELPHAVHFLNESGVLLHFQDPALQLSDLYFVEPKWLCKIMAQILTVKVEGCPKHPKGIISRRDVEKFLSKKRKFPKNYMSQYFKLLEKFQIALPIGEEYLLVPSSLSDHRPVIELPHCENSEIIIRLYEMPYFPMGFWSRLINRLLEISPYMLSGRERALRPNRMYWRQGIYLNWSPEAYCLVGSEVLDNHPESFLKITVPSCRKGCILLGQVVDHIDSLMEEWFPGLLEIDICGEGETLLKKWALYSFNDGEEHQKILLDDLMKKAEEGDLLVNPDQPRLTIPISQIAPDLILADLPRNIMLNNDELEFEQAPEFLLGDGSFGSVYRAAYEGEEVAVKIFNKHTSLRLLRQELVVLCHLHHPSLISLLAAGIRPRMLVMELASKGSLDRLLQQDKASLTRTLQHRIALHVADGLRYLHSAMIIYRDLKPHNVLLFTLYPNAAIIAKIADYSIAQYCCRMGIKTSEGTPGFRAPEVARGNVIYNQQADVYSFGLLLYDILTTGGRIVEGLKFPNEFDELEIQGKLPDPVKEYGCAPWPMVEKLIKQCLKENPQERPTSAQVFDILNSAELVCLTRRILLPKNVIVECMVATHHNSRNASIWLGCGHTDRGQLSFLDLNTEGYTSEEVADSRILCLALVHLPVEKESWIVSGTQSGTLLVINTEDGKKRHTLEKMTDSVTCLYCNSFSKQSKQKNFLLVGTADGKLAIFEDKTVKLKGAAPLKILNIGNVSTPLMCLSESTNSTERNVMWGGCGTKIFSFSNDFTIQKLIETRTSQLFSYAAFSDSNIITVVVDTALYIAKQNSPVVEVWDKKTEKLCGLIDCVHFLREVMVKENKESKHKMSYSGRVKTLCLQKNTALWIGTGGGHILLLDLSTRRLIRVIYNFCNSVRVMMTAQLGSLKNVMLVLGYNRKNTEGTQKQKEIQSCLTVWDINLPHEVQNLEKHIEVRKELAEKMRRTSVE
test_description: LRRK2 degradation assay, G2019S LRRK2-HiBit expressed from plasmid in HEK293 cells
Format: cell-based
assay_setup: HEK293 cells transfected with HiBit-tagged G2019S LRRK2, 24 hours compound incubation
endpoint: Dmax

Example cases with answers are listed next.
C[C@H]1CN(c2cc(-c3n[nH]c4ccc(OC5(C)CC5)cc34)ncn2)CCN1CCOC1CCN(CC2CCN(c3ccc4c(c3)C(=O)N(C3CCC(=O)NC3=O)C4=O)CC2)CC1 (some centres unmarked) ... ≥ 70%
CC(C)Oc1ccc2[nH]nc(-c3cc(N4CCN(CCOCCN5CCN(c6ccc7c(c6)C(=O)N(C6CCC(=O)NC6=O)C7=O)CC5)[C@@H](C)C4)ncn3)c2c1 (some centres unmarked) ... < 50%
C[C@H]1CN(c2cc(-c3n[nH]c4ccc(OC5(C)CC5)cc34)ncn2)CCN1CCOCCOCCOCCOc1ccc2c(c1)C(=O)N(C1CCC(=O)NC1=O)C2=O (some centres unmarked) ... 50 to 70%

The reported Dmax of the compound CC1(Oc2ccc3[nH]nc(-c4cc(N5CCO[C@H](CCOCCOCCOCCOc6ccc7c(c6)C(=O)N(C6CCC(=O)NC6=O)C7=O)C5)ncn4)c3c2)CC1 (stereo in doubt) was ≥ 70%

The reported Dmax of the compound CC(C)Oc1ccc2[nH]nc(-c3cc(N4CCN(CCN(C)CCN5CCN(c6ccc7c(c6)C(=O)N(C6CCC(=O)NC6=O)C7=O)CC5)[C@@H](C)C4)ncn3)c2c1 (some centres unmarked) was 50 to 70%

====

study_target: G2019S LRRK2 (Homo sapiens, UniProt Q5S007, G2019S)
Construct: expressed in transfected cells; host or cells: HEK293 (ATCC CRL-1573), transient transfection, ubiquitin promoter
test_description: LRRK2 degradation assay, G2019S LRRK2-HiBit expressed from plasmid in HEK293 cells
Format: cell-based
assay_setup: HEK293 cells transfected with HiBit-tagged G2019S LRRK2, 24 hours compound incubation
Consider the following compounds and their measured DC50 readings.

Example cases with answers are listed next.
CC(C)Oc1ccc2[nH]nc(-c3cc(N4CCN(CCC5CCN(CC6CCN(c7ccc8c(c7)C(=O)N(C7CCC(=O)NC7=O)C8=O)CC6)CC5)CC4)ncn3)c2c1 (centres unmarked) ... 10 to 50 nM
CC(C)Oc1ccc2[nH]nc(-c3cc(N4CCN(CCN5CCC(CN6CCN(c7ccc8c(c7)C(=O)N(C7CCC(=O)NC7=O)C8=O)CC6)CC5)CC4)ncn3)c2c1 (centres unmarked) ... < 10 nM
CC(C)Oc1ccc2[nH]nc(-c3cc(N4CCN(CCN5CCC(CC6CCN(c7ccc8c(c7)C(=O)N(C7CCC(=O)NC7=O)C8=O)CC6)CC5)CC4)ncn3)c2c1 (centres unmarked) ... 10 to 50 nM
CC1(Oc2ccc3[nH]nc(-c4cc(N5CCN(CCN6CCC(CN7CCN(c8ccc9c(c8)C(=O)N(C8CCC(=O)NC8=O)C9=O)CC7)CC6)CC5)ncn4)c3c2)CC1 (centres unmarked) ... < 10 nM

The reported DC50 of the compound C[C@H]1CN(c2cc(-c3n[nH]c4ccc(OC(C)(C)C)cc34)ncn2)CCN1CCOCCOCCOCCOc1ccc2c(c1)C(=O)N(C1CCC(=O)NC1=O)C2=O (some centres unmarked) was ≥ 100 nM

The reported DC50 of the compound CC1(Oc2ccc3[nH]nc(-c4cc(N5CCO[C@H](CCOCCOCCOCCOc6ccc7c(c6)C(=O)N(C6CCC(=O)NC6=O)C7=O)C5)ncn4)c3c2)CC1 (stereo in doubt) was 50 to 100 nM

The reported DC50 of the compound C[C@H]1CN(c2cc(-c3n[nH]c4ccc(OC5(C)CC5)cc34)ncn2)CCN1CCOCCOCCOCCOc1ccc(C(=O)NC2CCC(=O)NC2=O)c(F)c1 (some centres unmarked) was 10 to 50 nM

====

study_target: wildtype LRRK2 (Homo sapiens)
Construct: expressed in transfected cells; host or cells: HEK293 (ATCC CRL-1573), transient transfection, ubiquitin promoter
test_description: LRRK2 degradation assay, wildtype LRRK2-HiBit expressed from plasmid in HEK293 cells
Format: cell-based
assay_setup: HEK293 cells transfected with HiBit-tagged wildtype LRRK2, 24 hours compound incubation; read-out: **WT Dmax (%)
Consider the following compounds and their measured Dmax readings.

Example cases with answers are listed next.
CC(C)Oc1ccc2[nH]nc(-c3cc(N4CCN(CCN(C)CCN5CCN(c6ccc7c(c6)C(=O)N(C6CCC(=O)NC6=O)C7=O)CC5)[C@@H](C)C4)ncn3)c2c1 (some centres unmarked) ... 50 to 70%
CC(C)Oc1ccc2[nH]nc(-c3cc(N4CCN(CCN5CC(C6CCN(c7ccc8c(c7)C(=O)N(C7CCC(=O)NC7=O)C8=O)CC6)C5)CC4)ncn3)c2c1 (centres unmarked) ... 50 to 70%
C[C@H]1CN(c2cc(-c3n[nH]c4ccc(OC5(C)CC5)cc34)ncn2)CCN1CC1CCN(CC2CCN(c3ccc4c(c3)C(=O)N(C3CCC(=O)NC3=O)C4=O)CC2)CC1 (some centres unmarked) ... 50 to 70%
CC(C)Oc1ccc2[nH]nc(-c3cc(N4CCN(CCN5CC(CN6CCN(c7ccc8c(c7)C(=O)N(C7CCC(=O)NC7=O)C8=O)CC6)C5)CC4)ncn3)c2c1 (centres unmarked) ... < 50%
CC(C)Oc1ccc2[nH]nc(-c3cc(N4CCN(CCN5CCN(CC6CCN(c7ccc8c(c7)C(=O)N(C7CCC(=O)NC7=O)C8=O)CC6)CC5)CC4)ncn3)c2c1 (centres unmarked) ... ≥ 70%
C[C@H]1CN(c2cc(-c3n[nH]c4ccc(OC5(C)CC5)cc34)ncn2)CCN1CCOCCOCCOCCOCCOc1ccc2c(c1)C(=O)N(C1CCC(=O)NC1=O)C2=O (some centres unmarked) ... ≥ 70%
CC1(Oc2ccc3[nH]nc(-c4cc(N5CCO[C@H](CCOCCOCCOCCOc6ccc7c(c6)C(=O)N(C6CCC(=O)NC6=O)C7=O)C5)ncn4)c3c2)CC1 (stereo in doubt) ... ≥ 70%
CC(C)Oc1ccc2[nH]nc(-c3cc(N4CCN(CCC5CCN(CC6CCN(c7ccc8c(c7)C(=O)N(C7CCC(=O)NC7=O)C8=O)CC6)CC5)CC4)ncn3)c2c1 (centres unmarked) ... 50 to 70%

The reported Dmax of the compound CC(C)Oc1ccc2[nH]nc(-c3cc(N4CCO[C@H](CN5CCN(CC6CCN(c7ccc8c(c7)C(=O)N(C7CCC(=O)NC7=O)C8=O)CC6)CC5)C4)ncn3)c2c1 (some centres unmarked) was 50 to 70%

The reported Dmax of the compound CC(C)Oc1ccc2[nH]nc(-c3cc(N4CCO[C@@H](CN5CCN(CC6CCN(c7ccc8c(c7)C(=O)N(C7CCC(=O)NC7=O)C8=O)CC6)CC5)C4)ncn3)c2c1 (some centres unmarked) was 50 to 70%

The reported Dmax of the compound CC(C)Oc1ccc2[nH]nc(-c3cc(N4CCO[C@@H](CCN5CCN(CC6CCN(c7ccc8c(c7)C(=O)N(C7CCC(=O)NC7=O)C8=O)CC6)CC5)C4)ncn3)c2c1 (some centres unmarked) was ≥ 70%

====

study_target: wildtype LRRK2 (Homo sapiens, UniProt Q5S007)
Construct: expressed in transfected cells; host or cells: HEK293 (ATCC CRL-1573), transient transfection, ubiquitin promoter
Sequence (Q5S007 whole entry): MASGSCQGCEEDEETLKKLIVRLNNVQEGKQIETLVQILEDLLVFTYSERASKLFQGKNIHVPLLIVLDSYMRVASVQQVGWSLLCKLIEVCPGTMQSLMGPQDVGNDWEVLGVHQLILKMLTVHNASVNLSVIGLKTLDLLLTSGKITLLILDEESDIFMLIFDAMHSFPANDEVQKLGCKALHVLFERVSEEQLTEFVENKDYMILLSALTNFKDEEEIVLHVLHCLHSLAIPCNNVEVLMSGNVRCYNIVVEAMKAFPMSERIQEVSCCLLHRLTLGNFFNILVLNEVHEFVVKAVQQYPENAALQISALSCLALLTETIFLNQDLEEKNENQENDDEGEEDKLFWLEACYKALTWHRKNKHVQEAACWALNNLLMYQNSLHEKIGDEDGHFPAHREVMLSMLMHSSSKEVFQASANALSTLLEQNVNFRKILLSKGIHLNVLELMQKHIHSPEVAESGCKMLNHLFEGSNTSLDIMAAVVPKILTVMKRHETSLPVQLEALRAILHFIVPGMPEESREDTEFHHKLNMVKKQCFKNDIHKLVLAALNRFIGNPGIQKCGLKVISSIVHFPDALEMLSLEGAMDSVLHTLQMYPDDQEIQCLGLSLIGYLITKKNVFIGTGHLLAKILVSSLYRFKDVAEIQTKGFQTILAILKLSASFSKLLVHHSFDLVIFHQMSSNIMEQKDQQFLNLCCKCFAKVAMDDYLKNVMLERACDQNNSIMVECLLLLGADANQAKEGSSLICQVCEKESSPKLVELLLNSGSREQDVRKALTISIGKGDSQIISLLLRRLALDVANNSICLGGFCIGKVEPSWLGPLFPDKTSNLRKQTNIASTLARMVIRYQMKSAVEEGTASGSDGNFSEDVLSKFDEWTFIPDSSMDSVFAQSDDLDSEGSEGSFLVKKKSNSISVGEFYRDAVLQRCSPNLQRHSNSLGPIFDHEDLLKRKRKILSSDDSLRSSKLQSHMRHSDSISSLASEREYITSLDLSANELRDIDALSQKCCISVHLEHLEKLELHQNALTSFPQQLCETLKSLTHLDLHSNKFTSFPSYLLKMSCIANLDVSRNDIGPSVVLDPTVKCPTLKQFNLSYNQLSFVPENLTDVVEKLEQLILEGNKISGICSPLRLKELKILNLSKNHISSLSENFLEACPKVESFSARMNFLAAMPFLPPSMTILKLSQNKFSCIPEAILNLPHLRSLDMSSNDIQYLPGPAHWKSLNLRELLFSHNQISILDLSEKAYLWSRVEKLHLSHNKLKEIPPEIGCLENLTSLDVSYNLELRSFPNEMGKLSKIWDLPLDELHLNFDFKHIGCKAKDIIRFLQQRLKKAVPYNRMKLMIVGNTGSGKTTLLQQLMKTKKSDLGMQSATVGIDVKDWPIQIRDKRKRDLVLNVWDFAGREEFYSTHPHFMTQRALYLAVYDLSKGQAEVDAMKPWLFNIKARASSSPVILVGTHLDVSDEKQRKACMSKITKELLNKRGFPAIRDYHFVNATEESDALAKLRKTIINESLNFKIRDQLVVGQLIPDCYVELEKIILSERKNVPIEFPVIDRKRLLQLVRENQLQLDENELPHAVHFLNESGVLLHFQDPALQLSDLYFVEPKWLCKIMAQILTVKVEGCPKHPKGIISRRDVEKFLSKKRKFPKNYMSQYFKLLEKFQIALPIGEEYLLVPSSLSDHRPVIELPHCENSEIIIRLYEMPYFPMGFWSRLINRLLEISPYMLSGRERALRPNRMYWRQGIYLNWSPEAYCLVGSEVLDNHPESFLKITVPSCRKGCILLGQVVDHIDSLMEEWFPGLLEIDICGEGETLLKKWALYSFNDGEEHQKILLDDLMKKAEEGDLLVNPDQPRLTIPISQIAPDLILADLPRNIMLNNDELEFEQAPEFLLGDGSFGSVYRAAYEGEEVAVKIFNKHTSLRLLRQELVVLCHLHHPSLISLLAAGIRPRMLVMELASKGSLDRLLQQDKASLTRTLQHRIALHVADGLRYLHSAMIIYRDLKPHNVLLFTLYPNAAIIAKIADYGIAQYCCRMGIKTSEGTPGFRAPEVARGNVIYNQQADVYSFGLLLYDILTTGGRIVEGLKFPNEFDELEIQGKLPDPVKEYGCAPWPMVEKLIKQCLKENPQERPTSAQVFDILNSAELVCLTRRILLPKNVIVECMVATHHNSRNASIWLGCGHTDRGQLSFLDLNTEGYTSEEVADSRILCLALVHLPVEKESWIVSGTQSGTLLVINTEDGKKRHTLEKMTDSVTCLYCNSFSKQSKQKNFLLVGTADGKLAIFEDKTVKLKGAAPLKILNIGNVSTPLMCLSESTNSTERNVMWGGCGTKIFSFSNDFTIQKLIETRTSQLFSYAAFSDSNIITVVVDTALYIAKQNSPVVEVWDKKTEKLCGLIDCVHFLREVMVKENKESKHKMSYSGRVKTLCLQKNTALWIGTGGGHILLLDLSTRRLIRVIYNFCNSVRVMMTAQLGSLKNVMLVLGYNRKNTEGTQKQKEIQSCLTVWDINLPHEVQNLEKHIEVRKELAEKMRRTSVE
test_description: LRRK2 degradation assay, wildtype LRRK2-HiBit expressed from plasmid in HEK293 cells
Type: cell-based
assay_setup: HEK293 cells transfected with HiBit-tagged wildtype LRRK2, 24 hours compound incubation; read-out: **WT Dmax (%)
Consider the following compounds and their measured Dmax readings.

C[C@H]1CN(c2cc(-c3n[nH]c4ccc(OC5(C)CC5)cc34)ncn2)CCN1CCOCCN1CCN(c2ccc3c(c2)C(=O)N(C2CCC(=O)NC2=O)C3=O)CC1 (stereo partly shown) ... 50 to 70%
C[C@H]1CN(c2cc(-c3n[nH]c4ccc(OC5(C)CC5)cc34)ncn2)CCN1CCOC1CCN(CC2CCN(c3ccc4c(c3)C(=O)N(C3CCC(=O)NC3=O)C4=O)CC2)CC1 (stereo partly shown) ... ≥ 70%
CC(C)Oc1ccc2[nH]nc(-c3cc(N4CCN(CC[C@@H]5CCN(CC6CCN(c7ccc8c(c7)C(=O)N(C7CCC(=O)NC7=O)C8=O)CC6)C5)CC4)ncn3)c2c1 (stereo partly shown) ... ≥ 70%

Record CC1(Oc2ccc3[nH]nc(-c4cc(N5CCN(CCN6CCC(CN7CCN(c8ccc9c(c8)C(=O)N(C8CCC(=O)NC8=O)C9=O)CC7)CC6)CC5)ncn4)c3c2)CC1 (stereo not shown) has wildtype LRRK2 (Homo sapiens, UniProt Q5S007) Dmax equal to ≥ 70%

Record C[C@H]1CN(c2cc(-c3n[nH]c4ccc(OC(C)(C)C)cc34)ncn2)CCN1CCOCCOCCOCCOc1ccc2c(c1)C(=O)N(C1CCC(=O)NC1=O)C2=O (stereo partly shown) has wildtype LRRK2 (Homo sapiens, UniProt Q5S007) Dmax equal to < 50%

Record C[C@H]1CN(c2cc(-c3[nH]nc4ccc(OC5(C)CC5)cc34)ncn2)CCN1CCOc1ccc2c(c1)C(=O)N(C1CCC(=O)NC1=O)C2=O (stereo partly shown) has wildtype LRRK2 (Homo sapiens, UniProt Q5S007) Dmax equal to < 50%
